molecular target: Albumin (Bos taurus) (UniProt P02769); experiment: bovine serum albumin binders on microarray, profiling panel, artefact control for SMM control protein annotation, biochemical, small-molecule microarray, Alexa647 label, 635/667 nm fluorescence (AID 1118); conditions: BSA-A647 binding, fluorescence 635 nm, higher = more signal;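 further: score merges 667 nm emission intensity and signal-to-noise per printed compound spot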
Sequence (P02769 whole entry, looked up): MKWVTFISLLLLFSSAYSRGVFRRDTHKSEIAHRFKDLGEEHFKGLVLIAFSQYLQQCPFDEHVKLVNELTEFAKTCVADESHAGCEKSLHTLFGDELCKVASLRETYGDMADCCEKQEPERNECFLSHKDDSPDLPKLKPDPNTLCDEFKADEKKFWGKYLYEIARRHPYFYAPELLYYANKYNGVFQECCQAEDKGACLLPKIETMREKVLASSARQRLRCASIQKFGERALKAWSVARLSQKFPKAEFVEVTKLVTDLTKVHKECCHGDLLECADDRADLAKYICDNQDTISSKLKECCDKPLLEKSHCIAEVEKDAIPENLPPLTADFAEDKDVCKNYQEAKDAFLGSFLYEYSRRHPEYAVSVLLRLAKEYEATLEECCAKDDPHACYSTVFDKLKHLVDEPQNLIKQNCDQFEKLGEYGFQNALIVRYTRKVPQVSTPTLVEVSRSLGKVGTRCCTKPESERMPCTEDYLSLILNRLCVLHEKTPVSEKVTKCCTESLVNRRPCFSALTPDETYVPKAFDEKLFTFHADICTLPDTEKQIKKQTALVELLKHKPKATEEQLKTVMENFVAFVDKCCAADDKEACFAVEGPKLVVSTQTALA
recorded_endpoint: composite z-score
Answer with the value's number alone.

Example compounds with recorded composite z-score:
compound_structure: COCCOC(=O)N1C(=O)[C@@]2(c3cc(C#CCCO)ccc31)[C@H](C(=O)N1CCc3cc(OC)c(OC)cc3C1)[C@H]1C(=O)O[C@H](c3ccccc3)[C@H](c3ccccc3)N1[C@@H]2c1ccccc1OCCO
target_entity: Albumin (Bos taurus) (UniProt P02769)
recorded_endpoint: composite z-score
test_value: 0.357
--
compound_structure: C=CCN1C(=O)[C@]2(O[C@H](CCn3cc([C@H](O)c4ccccc4)nn3)[C@@H]([Si](C)(C)c3ccc(OC)cc3)[C@@H]2C)c2cc(N3C(=O)c4cccc5cccc3c45)ccc21
target_entity: Albumin (Bos taurus) (UniProt P02769)
recorded_endpoint: composite z-score
test_value: 0.626
--
compound_structure: COCCCN1C(=O)[C@@]2(Cc3ccccc31)c1ccccc1C(=O)N(Cc1ccccc1OC)[C@H]2c1ccc(CO)cc1
target_entity: Albumin (Bos taurus) (UniProt P02769)
recorded_endpoint: composite z-score
test_value: 0.345
--
compound_structure: COc1ccc(CCNC(=O)[C@@]2(C)c3ccccc3C(=O)N(Cc3cc(C(F)(F)F)cc(C(F)(F)F)c3)[C@H]2c2ccc(CO)cc2)cc1
target_entity: Albumin (Bos taurus) (UniProt P02769)
recorded_endpoint: composite z-score
test_value: 0.0386
--
compound_structure: C=CCNC(=O)[C@H]1[C@@H]2C(=O)O[C@@H](c3ccccc3)[C@@H](c3ccccc3)N2[C@@H](c2ccccc2OCCO)[C@]12C(=O)N(C(=O)OCCOC)c1ccccc12
target_entity: Albumin (Bos taurus) (UniProt P02769)
recorded_endpoint: composite z-score
test_value: 0.813
--
compound_structure: Cc1ccc(F)cc1S(=O)(=O)N[C@@H]1CCN(Cc2ccc3[nH]ccc3c2)C1
target_entity: Albumin (Bos taurus) (UniProt P02769)
recorded_endpoint: composite z-score
test_value: -0.213

# ---- query compound ----
Using the record for CC(C)C(=C=CC[C@@H](O)c1cccc(OCCO)c1)CCO , state its measured composite z-score.
0.161

* * *

experiment: MM1S cell viability effects, profiling panel, calcein-AM fluorescence, 48 h, basal (AID 1165); conditions: higher = more signal;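 further: viability of MM1S multiple myeloma cells under basal unstimulated conditions; test concentration not given here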
Hi, to clarify the labels: Yes covers z-score from -0.3 upward, No covers anything below -0.3.

Solved cases (5 shown):
compound: CCOC(=O)C1=CCC(c2cc3ccccc3[nH]2)N(S(=O)(=O)c2ccccc2[N+](=O)[O-])C1 (stereo not drawn)
group: Yes
//
compound: [N-]=[N+]=NCc1ccccc1C[C@]1(C(=O)N2CCOCC2)N=C(c2ccc(OCCCO)cc2)O[C@H]1c1ccccc1CN=[N+]=[N-]
group: No
//
compound: [N-]=[N+]=NCc1ccccc1C[C@]1(C(=O)O)COC(c2ccc(OCCCO)cc2)=N1
group: Yes
//
compound: O=C(NCCO)C1=C[C@H](Oc2ccccc2I)[C@@H](O)[C@H](NCc2ccc(F)cc2)C1
group: Yes
//
compound: COc1ccc([Si](C)(C)[C@H]2[C@H](CCO)O[C@@]3(C(=O)N(Cc4ccc(N5CCOC5=O)cc4)c4ccccc43)[C@@H]2C)cc1
group: No

I'd appreciate it if you could say whether CC(c1ccccc1)C(O)C1C=CC2C(=O)N(c3ccccc3)C(=O)C2N1Nc1ccc(C#N)cc1 (stereo not drawn) has z-score at least equal to -0.3.
Yes

I'd appreciate it if you could say whether COC(=O)[C@@]1(Cc2ccccc2CN=[N+]=[N-])COC(c2ccc(OCCCO)cc2)=N1 has z-score at least equal to -0.3.
No

I'd appreciate it if you could say whether O=C1NC(=O)C2C1C=CC(C(O)c1cccc(O)c1)N2Nc1ccc(Cl)cc1Cl (stereo not drawn) has z-score at least equal to -0.3.
No

I'd appreciate it if you could say whether O=C1O[C@@H](c2ccccc2)[C@@H](c2ccccc2)N2[C@@H](c3ccc(O)cc3)[C@]3(C(=O)Nc4ccc(C#CC5=CCCCC5)cc43)[C@@H](C(=O)N3CCCCCCC3)[C@H]12 has z-score at least equal to -0.3.
Yes

I'd appreciate it if you could say whether CCCCC(=C=CC[C@@H](O)c1ccc(OCCO)cc1)C[C@@H](O)c1ccccn1 has z-score at least equal to -0.3.
No

I'd appreciate it if you could say whether O=C(NCC(F)(F)F)[C@@H]1c2ccccc2C(=O)N(CC23CC4CC(CC(C4)C2)C3)[C@H]1c1ccc(CO)cc1 has z-score at least equal to -0.3.
No

I'd appreciate it if you could say whether CC(=O)c1ccc(C(O)C2C=CC3C(=O)NC(=O)C3N2Nc2ccc(Cl)cc2Cl)cc1 (stereo not drawn) has z-score at least equal to -0.3.
Yes

I'd appreciate it if you could say whether CN(C)CCCNC(=O)[C@@]1(Cc2ccccc2I)c2ccccc2C(=O)N(Cc2ccccc2)[C@H]1c1ccc(CO)cc1 has z-score at least equal to -0.3.
No

I'd appreciate it if you could say whether CC(C)C[C@H]1NC(=O)[C@@H](C)NC(=O)[C@@]23C(=O)N[C@@H](Cc4ccccc4)C2[C@H](C)[C@@]2(C)O[C@H]2C3/C=C/C/C=C\CNC1=O (stereo partly drawn) has z-score at least equal to -0.3.
Yes

I'd appreciate it if you could say whether COc1ccc(NN2C(C(O)c3cc(C(F)(F)F)cc(C(F)(F)F)c3)C=CC3C(=O)N(C4CCCCC4)C(=O)C32)cc1 (stereo not drawn) has z-score at least equal to -0.3.
Yes

I'd appreciate it if you could say whether COCCOC(=O)N1C(=O)[C@@]2(c3ccccc31)[C@H](c1ccc(OCCO)cc1)N1[C@H](c3ccccc3)[C@H](c3ccccc3)OC(=O)[C@H]1[C@@H]2C(=O)N1CCN(c2ncccn2)CC1 has z-score at least equal to -0.3.
No

I'd appreciate it if you could say whether COC(=O)[C@@]1(Cc2ccc(OC)cc2)[C@H]2c3cc(C(=O)N4CCCC4)n(CCc4ccc(OC)c(Br)c4)c3C[C@H]2CN1C(=O)c1ccccc1 has z-score at least equal to -0.3.
Yes

I'd appreciate it if you could say whether COCCOC(=O)N1C(=O)[C@@]2(c3cc(C#CC4(O)CCCCCC4)ccc31)[C@H](c1ccccc1OCCO)N1[C@H](c3ccccc3)[C@H](c3ccccc3)OC(=O)[C@H]1[C@@H]2C(=O)N1CCCCCCC1 has z-score at least equal to -0.3.
No

I'd appreciate it if you could say whether COc1ccc(NN2C(C(O)c3ccc(OC)cc3)C=CC3C(=O)N(C4CCCCC4)C(=O)C32)cc1 (stereo not drawn) has z-score at least equal to -0.3.
Yes

I'd appreciate it if you could say whether C=CCC(OC(C)=O)[C@@H]1[C@@H](N(Cc2ccc(-c3ccccc3)cc2)C(=O)c2cccc3ccccc23)c2cc(OCCCO)ccc2N1C(=O)c1ccc2ccccc2c1 (stereo partly drawn) has z-score at least equal to -0.3.
No

I'd appreciate it if you could say whether O=C1C2C=CC(C(O)c3cccs3)N(Nc3ccccc3)C2C(=O)N1c1ccccc1 (stereo not drawn) has z-score at least equal to -0.3.
Yes

I'd appreciate it if you could say whether COCCOC(=O)N1C(=O)[C@@]2(c3ccccc31)[C@H](C(N)=O)[C@H]1C(=O)O[C@H](c3ccccc3)[C@H](c3ccccc3)N1[C@@H]2c1ccc(OCCO)cc1 has z-score at least equal to -0.3.
Yes

I'd appreciate it if you could say whether COCCOC(=O)N1C(=O)[C@@]2(c3cc(C#Cc4ccc(OC)cc4)ccc31)[C@H](C(=O)Nc1nc3ccccc3s1)[C@H]1C(=O)O[C@H](c3ccccc3)[C@H](c3ccccc3)N1[C@@H]2c1ccccc1OCCO has z-score at least equal to -0.3.
No

I'd appreciate it if you could say whether COCCOC(=O)N1C(=O)[C@@]2(c3cc(C#CCC(C(=O)OC)C(=O)OC)ccc31)[C@H](C(N)=O)[C@H]1C(=O)O[C@H](c3ccccc3)[C@H](c3ccccc3)N1[C@@H]2c1ccc(OCCO)cc1 has z-score at least equal to -0.3.
No

I'd appreciate it if you could say whether COc1ccc(C#Cc2ccc3c(c2)[C@]2(C(=O)N3)[C@H](c3ccc(OCCO)cc3)N3[C@H](c4ccccc4)[C@H](c4ccccc4)OC(=O)[C@H]3[C@@H]2C(=O)O)cc1 has z-score at least equal to -0.3.
No

I'd appreciate it if you could say whether CCC(CC)C(O)C1C=CC2C(=O)N(C)C(=O)C2N1N1CCCCC1 (stereo not drawn) has z-score at least equal to -0.3.
No

I'd appreciate it if you could say whether COCCCNC(=O)[C@@]1(Sc2ccc(C)cc2)CC(=O)N(C2CCCCC2)[C@@H]1c1ccc(CO)cc1I has z-score at least equal to -0.3.
No

I'd appreciate it if you could say whether COCCOC(=O)N1C(=O)[C@@]2(c3ccccc31)[C@H](C(=O)N1CCCCCCC1)[C@H]1C(=O)O[C@H](c3ccccc3)[C@H](c3ccccc3)N1[C@@H]2c1ccc(O)cc1 has z-score at least equal to -0.3.
Yes

Value source: PubChem BioAssay
